# Test method notes: Metabolic stability in rat liver microsomes
# Type: in vitro ADME
# Study conditions: 30 minutes incubation, remaining compound by HPLC, related compounds lacking the C-6 alkyl group, read-out: Rat Microsome Stability of 6-H cyanopyridine Compounds (approximate half life)
Measure: half-life (min)

(I) Cc1c(Nc2c(C#N)cncc2-c2ccc(OCCNCCCn3ccnc3)cc2)ccc2[nH]ccc12
(II) CCOCCNCCOc1ccc(-c2cncc(C#N)c2Nc2ccc3[nH]ccc3c2C)cc1
Query string: Lab note: check whether I or II shows the higher recorded half-life. Write down the label attached to your selection.
Result string: I
(I: 22 min, II: 7 min)

====

# half-life per record follows
# Test method notes: Metabolic stability in rat liver microsomes
# Format: in vitro ADME
# Study conditions: 30 minutes incubation, remaining compound by HPLC, 6-Me compounds of the invention, read-out: Rat Microsome Stability of 6-Me cyanopyridine Compounds (approximate half life)

Below: 2 compounds and their reported half-life.
Query string: Query: half-life; subject: Cc1ncc(C#N)c(Nc2ccc3[nH]ccc3c2C)c1-c1ccc(OCCN2CCC(c3ccccc3)CC2)cc1
Result string: 20 min

Query string: Query: half-life; subject: Cc1ncc(C#N)c(Nc2ccc3[nH]ccc3c2C)c1-c1ccc(OCCNCc2ccccn2)cc1
Result string: 13 min

Next item in the queue.
Query string: Query: half-life; subject: Cc1ncc(C#N)c(Nc2ccc3[nH]ccc3c2C)c1-c1ccc(OCCN2CCN(CCO)CC2)cc1
Result string: > 30 min
